These data points were gathered from ChEMBL document CHEMBL5385895.

- Target Or System: Indoleamine 2,3-dioxygenase 1 (Homo sapiens, UniProt P14902)
- Sequence (P14902 whole entry): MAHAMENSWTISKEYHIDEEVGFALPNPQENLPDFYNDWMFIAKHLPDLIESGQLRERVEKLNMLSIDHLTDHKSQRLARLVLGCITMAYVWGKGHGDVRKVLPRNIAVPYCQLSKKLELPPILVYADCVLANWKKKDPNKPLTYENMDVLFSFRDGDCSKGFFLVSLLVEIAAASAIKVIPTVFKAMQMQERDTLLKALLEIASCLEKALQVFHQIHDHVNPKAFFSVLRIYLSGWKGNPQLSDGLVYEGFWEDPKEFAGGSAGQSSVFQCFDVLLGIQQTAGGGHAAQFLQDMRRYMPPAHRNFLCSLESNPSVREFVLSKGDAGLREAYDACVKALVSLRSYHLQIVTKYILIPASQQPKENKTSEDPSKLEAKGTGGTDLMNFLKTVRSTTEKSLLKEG
- Assay Remarks: Inhibition of IDO1 in IFN-gamma-induced human HeLa cells assessed as reduction in N-formylkynurenine formation using L-tryptophan as substrate preincubated for 24 hrs followed by substrate addition and measured after 30 mins by SpectraMax microplate reader analysis
- Format: cell-based
Outcome Measure: IC50 (nM)

O=C(NCC1CCC1)Nc1nonc1/C(=N/O)Nc1ccc(F)c(Br)c1; 41.1
O=C(Nc1ccccc1)Nc1nonc1/C(=N/O)Nc1ccc(F)c(Br)c1; 49.5
CC(C)CNC(=O)Nc1nonc1/C(=N/O)Nc1ccc(F)c(Br)c1; 41.7
O=C(NCC1CC1)Nc1nonc1/C(=N/O)Nc1ccc(F)c(Br)c1; 30.2
CNC(=O)Nc1nonc1/C(=N/O)Nc1ccc(F)c(Br)c1; 44.6

A. CC(C)NC(=O)Nc1nonc1/C(=N/O)Nc1ccc(F)c(Br)c1
B. CCCNC(=O)Nc1nonc1/C(=N/O)Nc1ccc(F)c(Br)c1
C. O=C(Nc1nonc1/C(=N/O)Nc1ccc(F)c(Br)c1)NC1CC1
Rank by IC50 (largest to smallest). Lab note: record answer as labels in requested order.
B, A, C
(B: 92.3 nM, A: 58.2 nM, C: 36.5 nM)

P. O=C(Nc1ccc(Br)cc1)Nc1nonc1/C(=N/O)Nc1ccc(F)c(Br)c1
Q. COc1ccc(NC(=O)Nc2nonc2/C(=N/O)Nc2ccc(F)c(Br)c2)cc1
R. CCCCNC(=O)Nc1nonc1/C(=N/O)Nc1ccc(F)c(Br)c1
Ordering criterion: IC50; begin with the maximum. Thanks in advance for listing the labels in the requested order.
R, P, Q

a. O=C(Nc1ccc(F)cc1)Nc1nonc1/C(=N/O)Nc1ccc(F)c(Br)c1
b. O=C(Nc1nonc1/C(=N/O)Nc1ccc(F)c(Br)c1)NC1CCC1
Hi! Which is lower in terms of IC50, the first one a or the second one b ? Answer by stating the label of the chosen item.
b
(b: 31.7 nM, a: 51.7 nM)
